B1: H2-Kb / E8 (parent)
chain 1: GDSVTQTEGLVTVTEGLPVKLNCTYQTTYLTIAFFWYVQYLNEAPQVLLKSSTDNKRTEHQGFHATLHKSSSSFHLQKSSAQLSDSALYYCALNTNTGKLTFGDGTVLTVKP
chain 2: EAAVTQSPRNKVAVTGGKVTLSCNQTNNHNNMYWYRQDTGHGLRLIHYSYGAGSTEKGDIPDGYKASRPSQENFSLILELATPSQTSVYFCASGDWGAGTGQLYFGEGSKLTVL
chain 3: not shown
chain 4: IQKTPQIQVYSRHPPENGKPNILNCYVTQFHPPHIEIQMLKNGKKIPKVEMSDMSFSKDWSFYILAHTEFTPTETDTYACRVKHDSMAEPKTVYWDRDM
chain 5: SIINFEKL

- Variants of: B1
- procedure.details: % of reporter cells activated (NFAT-GFP), raw; note: test concentration or dose not given here
- applied.conditions: with E8; scale: % of reporter cells activated
Parameter threshold = 0.5. Response is 1 (yes) when ratio to parent meets or exceeds it, else 0 (no).

• chain 5 N4W = 1 (yes)
• chain 5 I2L = 1 (yes)
• chain 5 K7W = 0 (no)
• chain 5 S1D = 1 (yes)
• chain 5 S1W = 0 (no)
• chain 5 S1T = 0 (no)
• chain 5 N4H = 0 (no)
• chain 5 F5M = 1 (yes)

State whether the measured ratio to parent reaches 0.5, counting equality as reaching it, for chain 5 I3R 1 (yes)

State whether the measured ratio to parent reaches 0.5, counting equality as reaching it, for chain 5 K7M 0 (no)

State whether the measured ratio to parent reaches 0.5, counting equality as reaching it, for chain 5 E6C 0 (no)

State whether the measured ratio to parent reaches 0.5, counting equality as reaching it, for chain 5 N4T 0 (no)

State whether the measured ratio to parent reaches 0.5, counting equality as reaching it, for chain 5 S1V 0 (no)

State whether the measured ratio to parent reaches 0.5, counting equality as reaching it, for chain 5 I3D 0 (no)

State whether the measured ratio to parent reaches 0.5, counting equality as reaching it, for chain 5 F5Y 1 (yes)

State whether the measured ratio to parent reaches 0.5, counting equality as reaching it, for chain 5 S1L 0 (no)

State whether the measured ratio to parent reaches 0.5, counting equality as reaching it, for chain 5 F5I 1 (yes)

State whether the measured ratio to parent reaches 0.5, counting equality as reaching it, for chain 5 F5H 1 (yes)

State whether the measured ratio to parent reaches 0.5, counting equality as reaching it, for chain 5 I3F 1 (yes)

State whether the measured ratio to parent reaches 0.5, counting equality as reaching it, for chain 5 E6Y 0 (no)

State whether the measured ratio to parent reaches 0.5, counting equality as reaching it, for chain 5 S1Y 0 (no)

State whether the measured ratio to parent reaches 0.5, counting equality as reaching it, for chain 5 I3H 1 (yes)
